- Experimental system: GR (Homo sapiens)
- Sequence (P04150 whole entry): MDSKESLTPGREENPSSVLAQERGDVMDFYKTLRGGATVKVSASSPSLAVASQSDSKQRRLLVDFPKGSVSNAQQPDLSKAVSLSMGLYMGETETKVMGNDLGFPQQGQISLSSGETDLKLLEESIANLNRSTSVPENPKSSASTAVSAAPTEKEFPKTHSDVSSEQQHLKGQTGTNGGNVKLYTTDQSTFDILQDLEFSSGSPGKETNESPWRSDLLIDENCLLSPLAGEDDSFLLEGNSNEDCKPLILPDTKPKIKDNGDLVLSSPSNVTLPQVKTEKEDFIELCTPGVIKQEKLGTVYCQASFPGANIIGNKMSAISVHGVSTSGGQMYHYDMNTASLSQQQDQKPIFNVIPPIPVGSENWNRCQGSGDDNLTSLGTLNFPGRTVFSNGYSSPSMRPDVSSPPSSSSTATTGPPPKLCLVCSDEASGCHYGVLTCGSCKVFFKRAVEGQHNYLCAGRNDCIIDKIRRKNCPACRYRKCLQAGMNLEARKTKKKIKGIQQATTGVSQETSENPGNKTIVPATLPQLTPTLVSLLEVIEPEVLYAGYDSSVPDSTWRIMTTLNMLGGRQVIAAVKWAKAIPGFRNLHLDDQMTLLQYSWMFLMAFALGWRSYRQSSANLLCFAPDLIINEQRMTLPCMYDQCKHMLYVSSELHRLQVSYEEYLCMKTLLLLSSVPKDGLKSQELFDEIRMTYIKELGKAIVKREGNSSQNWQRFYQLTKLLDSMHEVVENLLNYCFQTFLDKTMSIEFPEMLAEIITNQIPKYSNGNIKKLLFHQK
- Assay info: GR luciferase antagonist assay (CHO/GR/MMTV Luciferase cells)
- Experimental context: 10 nM Dexamethasone final, 16-18 h
Reported endpoint: IC50

Known IC50 results, listed for orientation:
• CC#C[C@]1(O)CC[C@H]2[C@@H]3CCC4=CC(=O)CC[C@]4(C)[C@H]3[C@@H](c3ccc(NC(C)C)cc3)C[C@@]21C = > 100 nM
• CN(c1ccc([C@H]2C[C@@]3(C)[C@@H](CC[C@@]3(O)C#CC(C)(C)C)[C@@H]3CCC4=CC(=O)CC[C@@H]4[C@H]32)cc1)C(C)(C)C = ≤ 100 nM
• CC(C)N(C)c1ccc([C@H]2C[C@@]3(C)[C@@H](CC[C@@]3(O)C#CC(C)(C)C)[C@@H]3CCC4=CC(=O)CC[C@@H]4[C@H]32)cc1 = ≤ 100 nM

Input: For the compound "CC(C)(C)C#C[C@]1(O)CC[C@H]2[C@@H]3CCC4=CC(=O)CC[C@@H]4[C@H]3[C@@H](c3ccc(N4CCOCC4)cc3)C[C@@]21C" , what IC50 is on record?
Output: ≤ 100 nM

Input: Subsequent entry: "CC(C)(C)C#C[C@]1(O)CC[C@H]2[C@@H]3CCC4=CC(=O)CC[C@@H]4[C@H]3[C@@H](c3ccc(N4CCN(C(=O)OC(C)(C)C)CC4)cc3)C[C@@]21C"
Output: ≤ 100 nM
